# TESTED_SYSTEM: T1, RBFOX1 RRM RbFoxmut (Fox-RRM*) (Homo sapiens, UniProt Q9NWB1 109-208, R118D;E147R;N151S;E152T)
# T1 sequence: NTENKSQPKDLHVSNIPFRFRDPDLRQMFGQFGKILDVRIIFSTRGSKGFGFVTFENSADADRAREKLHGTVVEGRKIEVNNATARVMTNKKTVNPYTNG
# RUN_DESCRIPTION: EMSA; HiTS-Eq, 1 nM pool, 10 min; buffer printed only for the single-RNA assays: 10 mM Tris pH 7.5, 150 mM NaCl, 3.4 mM EDTA, 0.001% NP-40, 30 C
# MEASUREMENT_PARAMETERS: tags: His6 N-terminal (pET28a); label: 5' 32P
The full ranking holds about 16,000 sequences; the median of “ka relative to ugcaugu” is about 0.096, and the highest 2% start at about 0.35. This is one part of a sample in which the highest values are shown more often than they occur.
EXPERIMENTAL_READOUT: binding signal

UGCCACG (DNA:RNA) RNA: GGGAGACCGGAAUUCAGAUUGUCCUGCCACGUUAAAUCCCGUCGUAGCCACCA DNA 1: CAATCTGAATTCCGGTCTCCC DNA 2: TGGTGGCTACGACGGGATT: 0.158 KA relative to UGCAUGU

Then there is this binder:
get_value(item= UGCACGG (DNA:RNA) RNA: GGGAGACCGGAAUUCAGAUUGUCCUGCACGGUUAAAUCCCGUCGUAGCCACCA DNA 1: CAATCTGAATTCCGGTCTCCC DNA 2: TGGTGGCTACGACGGGATT , readout=binding signal) returns 0.308 KA relative to UGCAUGU
